# Test system: 786-0 renal
# PROCEDURE SUMMARY: NCI-60 one-dose screen, 48 h (100 = growth as untreated, 0 = no growth, -100 = all killed)
# TEST CONTEXT: 10 µM unless noted
Compounds without any hit were thinned out: in the full panel of roughly 83,000, 20% have a hit.
Sorting guide: entries reporting growth beneath 30% go in the true (1) pile, the rest go in the false (0) pile.

INSERT INTO assay_data (molecule, tgt, answer_label) VALUES
  ('COC(=O)[C@]12CC[C@@H](C)[C@H](C)[C@@H]1C1=CC[C@@H]3[C@@]4(C)C[C@@H](OC(C)=O)[C@H](O)[C@@](C)(COC(C)=O)[C@@H]4[C@H](O)C[C@@]3(C)[C@]1(C)CC2', '786-0 renal', 'true (1)'),
  ('O=C1/C(=C\c2ccco2)SC(=S)N1CCc1ccc(O)cc1', '786-0 renal', 'false (0)'),
  ('COC(=O)[C@]12CC[C@@H](C)[C@H](C)[C@@H]1C1=CC[C@@H]3[C@@](C)(CC#N)C4=C(C[C@@]3(C)[C@]1(C)CC2)OC[C@]4(C)C=O', '786-0 renal', 'true (1)');

// query Does the reported growth of Cc1ccc(/C=C(\C#N)c2cc3ccccc3n2C)cc1 stay below 30%?
// result false (0)

----------
# Tested on: HOP-92 NSCLC
# PROCEDURE SUMMARY: NCI-60 one-dose screen, 48 h
# TEST CONTEXT: 10 µM unless noted
The panel holds about 83,000 compounds, 20% with a hit somewhere; the sample as a whole holds those more often. Active and inactive are the calls of the source. The calls were made as follows: active = growth percent below 10; inactive = the rest.
Lab note: assign the record to one of y (active), n (inactive)

Please review the entries below; each comes with its answer.
INSERT INTO assay_data (structure_string, tgt, answer_label) VALUES
  ('c1csc(-c2nc(-c3cc4ccccc4c(N4CCOCC4)n3)cs2)c1', 'HOP-92 NSCLC', 'n'),
  ('O=C1CCC/C=C\C[C@H]2C=C(Cl)C(=O)/C2=C/C[C@H](CCCCC(F)(F)F)OC(=O)CCC/C=C\C[C@H]2C=C(Cl)C(=O)/C2=C/C[C@H](CCCCC(F)(F)F)O1', 'HOP-92 NSCLC', 'y'),
  ('Cc1[c-]onc1C.Cc1[c-]onc1C.[Ag].[Ag].[NH-]S(=O)(=O)c1ccc(N=Nc2cc(N=Nc3ccc(S([NH-])(=O)=O)cc3)c3c(NC(=O)C(Cl)Cl)cccc3c2OC(=O)C(Cl)Cl)cc1', 'HOP-92 NSCLC', 'y'),
  ('C=C(C)[C@@H]1CC[C@]2(C(=O)N3CCN(C)CC3)CC[C@]3(C)[C@H](CC[C@@H]4[C@@]5(C)C/C(=C/c6ccc(C(F)(F)F)cc6)C(=O)C(C)(C)[C@@H]5CC[C@]43C)[C@@H]12', 'HOP-92 NSCLC', 'n'),
  ('O=[N+]([O-])c1ccc(/C=N\Nc2ccccc2)cc1', 'HOP-92 NSCLC', 'n');

// query Look up the recorded call for COc1cccc(NC(=O)c2sc3nc4c(cc3c2N)C(=O)CCC4)c1 in this test.
// result n

// query Look up the recorded call for Cc1csc(Nc2nc(-c3ccc(Cl)cc3)nc(C(Cl)(Cl)Cl)n2)n1 in this test.
// result n

// query Look up the recorded call for CC1(C)C(=O)/C(=C\c2cccnc2)C[C@]2(C)[C@H]3CC[C@@H]4[C@@H](C(=O)/C=C/c5ccncc5)CC[C@@]4(C)[C@]3(C)CC[C@@H]12 in this test.
// result n
